molecular target: human TAS1R2-WT/TAS1R3-G367C (Homo sapiens, UniProt Q7RTX0+Q8TE23, G367C); construct: expressed in transfected cells; host or cells: HEK293T stably expressing Gα16gust44; assay: Calcium mobilisation assay, TAS1R2-WT with TAS1R3 variant G367C; format: cell-based; conditions: read-out: EC50
Sequence (Q8TE23 20-839): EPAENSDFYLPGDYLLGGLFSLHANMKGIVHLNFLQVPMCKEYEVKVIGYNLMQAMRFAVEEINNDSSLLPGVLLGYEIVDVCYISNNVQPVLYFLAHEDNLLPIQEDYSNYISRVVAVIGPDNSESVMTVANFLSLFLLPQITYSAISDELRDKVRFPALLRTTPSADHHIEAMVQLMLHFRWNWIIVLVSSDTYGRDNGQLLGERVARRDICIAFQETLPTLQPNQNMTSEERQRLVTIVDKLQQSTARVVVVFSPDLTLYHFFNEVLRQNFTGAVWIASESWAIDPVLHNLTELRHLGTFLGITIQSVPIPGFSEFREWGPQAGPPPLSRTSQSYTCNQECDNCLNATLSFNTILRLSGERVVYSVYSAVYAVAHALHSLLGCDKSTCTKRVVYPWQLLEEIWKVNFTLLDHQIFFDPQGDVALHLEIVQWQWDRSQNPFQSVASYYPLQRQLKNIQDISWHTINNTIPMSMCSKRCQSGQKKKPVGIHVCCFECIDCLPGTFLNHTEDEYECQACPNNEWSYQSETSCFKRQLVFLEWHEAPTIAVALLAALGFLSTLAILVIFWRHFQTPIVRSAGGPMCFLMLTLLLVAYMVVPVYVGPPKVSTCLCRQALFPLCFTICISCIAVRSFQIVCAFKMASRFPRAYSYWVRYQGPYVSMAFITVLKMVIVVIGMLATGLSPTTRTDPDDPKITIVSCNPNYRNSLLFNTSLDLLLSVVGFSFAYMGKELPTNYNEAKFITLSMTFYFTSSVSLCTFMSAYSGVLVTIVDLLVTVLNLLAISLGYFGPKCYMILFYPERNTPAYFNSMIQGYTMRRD
Sequence (Q7RTX0 21-852 G367C): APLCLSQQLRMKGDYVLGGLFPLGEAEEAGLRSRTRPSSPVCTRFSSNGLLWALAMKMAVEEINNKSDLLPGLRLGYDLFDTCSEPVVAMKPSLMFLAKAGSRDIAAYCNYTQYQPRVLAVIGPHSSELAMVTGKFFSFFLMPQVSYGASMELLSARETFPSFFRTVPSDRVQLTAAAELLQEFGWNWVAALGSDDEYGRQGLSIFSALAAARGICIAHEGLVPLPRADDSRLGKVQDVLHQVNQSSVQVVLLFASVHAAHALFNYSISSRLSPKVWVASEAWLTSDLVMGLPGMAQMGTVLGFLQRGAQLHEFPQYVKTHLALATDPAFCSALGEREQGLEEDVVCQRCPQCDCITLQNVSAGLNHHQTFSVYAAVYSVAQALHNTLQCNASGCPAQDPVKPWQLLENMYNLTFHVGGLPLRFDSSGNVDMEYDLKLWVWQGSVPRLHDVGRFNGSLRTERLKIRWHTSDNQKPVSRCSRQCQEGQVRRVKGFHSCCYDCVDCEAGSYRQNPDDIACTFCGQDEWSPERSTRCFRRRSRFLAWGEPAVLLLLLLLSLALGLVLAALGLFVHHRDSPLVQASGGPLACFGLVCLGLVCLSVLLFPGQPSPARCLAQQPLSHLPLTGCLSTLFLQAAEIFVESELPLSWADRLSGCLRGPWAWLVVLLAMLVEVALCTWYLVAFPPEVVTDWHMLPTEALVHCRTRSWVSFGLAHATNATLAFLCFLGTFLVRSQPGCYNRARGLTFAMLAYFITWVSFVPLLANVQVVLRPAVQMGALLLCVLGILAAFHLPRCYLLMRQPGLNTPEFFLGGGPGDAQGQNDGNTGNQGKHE
pEC50: −log10 of the molar value.
measured.property: pEC50

compound	tested.target	measured.property	val
O=S(=O)(O)NC1CCCCC1 [Cyclamate, cyclamate]	human TAS1R2-WT/TAS1R3-G367C (Homo sapiens, UniProt Q7RTX0+Q8TE23, G367C)	pEC50	2.67
C=C1C[C@@]23CC[C@H]4[C@@](C)(CCC[C@@]4(C)C(=O)O[C@@H]4O[C@H](CO)[C@@H](O)[C@H](O[C@@H]5O[C@H](CO)[C@@H](O)[C@H](O)[C@H]5O)[C@H]4O[C@@H]4O[C@H](CO)[C@@H](O)[C@H](O)[C@H]4O)[C@@H]2CC[C@]1(O[C@@H]1O[C@H](CO)[C@@H](O)[C@H](O[C@@H]2O[C@H](CO)[C@@H](O)[C@H](O)[C@H]2O)[C@H]1O[C@@H]1O[C@H](CO)[C@@H](O)[C@H](O)[C@H]1O)C3 [Rebaudioside M, rebaudioside M]	human TAS1R2-WT/TAS1R3-G367C (Homo sapiens, UniProt Q7RTX0+Q8TE23, G367C)	pEC50	4.33

P: OC[C@H]1O[C@H](O[C@]2(CCl)O[C@H](CCl)[C@@H](O)[C@@H]2O)[C@H](O)[C@@H](O)[C@H]1Cl [Sucralose]
Q: CC1=CC(=O)NS(=O)(=O)O1 [Acesulfame K, acesulfame K]
For P and Q , which recorded pEC50 is lower? Respond using the label that marks the chosen record.
Q

Source of measurements: paper PMC11945486
